Values from the RNAGym collection of RNA variant scans (doi:10.7554/elife.80360)

B1: HDV Ribozyme (parent)
chain: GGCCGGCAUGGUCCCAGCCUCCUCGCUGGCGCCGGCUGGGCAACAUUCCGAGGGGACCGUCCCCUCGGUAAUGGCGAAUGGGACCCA

Variants of: B1
EXPERIMENTAL DETAILS: self-cleavage, relative activity (ratio to wild type); higher = more cleavage; co-transcriptional
Everything with self-cleavage lower than 0.4 is Criterion not met; everything else, including exactly 0.4, is Criterion met.

Reference set (8 entries):
>>> print(df.to_string())
   mutation_spec                cat
0      G39U G59A      Criterion met
1      G35C G68A  Criterion not met
2      C24U A43U  Criterion not met
3      U12C G40C  Criterion not met
4      U47C G67A      Criterion met
5      G11U U20G  Criterion not met
6       A8G C64G      Criterion met
7       C7U A42G      Criterion met

I'd appreciate it if you could say whether G1C U47A has self-cleavage at least equal to 0.4.
Criterion not met

I'd appreciate it if you could say whether A8C G54A has self-cleavage at least equal to 0.4.
Criterion met

I'd appreciate it if you could say whether C21A U47G has self-cleavage at least equal to 0.4.
Criterion not met
